The measured values listed here are drawn from patent US5852018A.

Each record here notes measured pIC50.
- System: AR 1.0 cells
- PROTOCOL_DESCRIPTION: Proliferation assay with and without fixed concentration of doxorubicin (sulphorhodamine B)
- Type: cell-based, mouse
- APPLIED_CONDITIONS: cytotoxic agent 1.00 μg/ml, four days; 5760 min; read-out: TOXICITY WITH CYTOTOXIC AGENT (IC 50)
pIC50 is a log-scale quantity: -log10 of the concentration expressed in molar.

With AR 1.0 cells as the test system, COC(=O)Cn1c(=O)/c(=C/c2ccc(OC)cc2)[nH]c(=O)/c1=C/c1ccccc1 [Compound 1490] showed pIC50 of 5.70

With AR 1.0 cells as the test system, CCN(CC)C(=O)Cn1c(=O)/c(=C/c2ccc(OC)cc2)[nH]c(=O)/c1=C/c1ccccc1 [Compound 1527] showed pIC50 of 5.82

With AR 1.0 cells as the test system, Cn1c(=O)/c(=C/c2ccccc2)n(Cc2ccccc2)c(=O)/c1=C/c1ccccc1 [Compound 1779] showed pIC50 of 6.10
